Entries and their Emax values follow.
- target of assay: von Hippel-Lindau disease tumor suppressor/SWI/SNF-related matrix-associated actin-dependent regulator of chromatin subfamily A member 2 (Homo sapiens, UniProt P51531+P40337)
- Sequence (P40337 whole entry, looked up): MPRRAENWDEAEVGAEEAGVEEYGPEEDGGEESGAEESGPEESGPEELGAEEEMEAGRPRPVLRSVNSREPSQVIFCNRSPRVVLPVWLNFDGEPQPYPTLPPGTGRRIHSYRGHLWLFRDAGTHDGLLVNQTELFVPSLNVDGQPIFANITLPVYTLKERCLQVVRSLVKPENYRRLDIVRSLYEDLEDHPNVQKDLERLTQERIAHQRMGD
- Sequence (P51531 whole entry, looked up): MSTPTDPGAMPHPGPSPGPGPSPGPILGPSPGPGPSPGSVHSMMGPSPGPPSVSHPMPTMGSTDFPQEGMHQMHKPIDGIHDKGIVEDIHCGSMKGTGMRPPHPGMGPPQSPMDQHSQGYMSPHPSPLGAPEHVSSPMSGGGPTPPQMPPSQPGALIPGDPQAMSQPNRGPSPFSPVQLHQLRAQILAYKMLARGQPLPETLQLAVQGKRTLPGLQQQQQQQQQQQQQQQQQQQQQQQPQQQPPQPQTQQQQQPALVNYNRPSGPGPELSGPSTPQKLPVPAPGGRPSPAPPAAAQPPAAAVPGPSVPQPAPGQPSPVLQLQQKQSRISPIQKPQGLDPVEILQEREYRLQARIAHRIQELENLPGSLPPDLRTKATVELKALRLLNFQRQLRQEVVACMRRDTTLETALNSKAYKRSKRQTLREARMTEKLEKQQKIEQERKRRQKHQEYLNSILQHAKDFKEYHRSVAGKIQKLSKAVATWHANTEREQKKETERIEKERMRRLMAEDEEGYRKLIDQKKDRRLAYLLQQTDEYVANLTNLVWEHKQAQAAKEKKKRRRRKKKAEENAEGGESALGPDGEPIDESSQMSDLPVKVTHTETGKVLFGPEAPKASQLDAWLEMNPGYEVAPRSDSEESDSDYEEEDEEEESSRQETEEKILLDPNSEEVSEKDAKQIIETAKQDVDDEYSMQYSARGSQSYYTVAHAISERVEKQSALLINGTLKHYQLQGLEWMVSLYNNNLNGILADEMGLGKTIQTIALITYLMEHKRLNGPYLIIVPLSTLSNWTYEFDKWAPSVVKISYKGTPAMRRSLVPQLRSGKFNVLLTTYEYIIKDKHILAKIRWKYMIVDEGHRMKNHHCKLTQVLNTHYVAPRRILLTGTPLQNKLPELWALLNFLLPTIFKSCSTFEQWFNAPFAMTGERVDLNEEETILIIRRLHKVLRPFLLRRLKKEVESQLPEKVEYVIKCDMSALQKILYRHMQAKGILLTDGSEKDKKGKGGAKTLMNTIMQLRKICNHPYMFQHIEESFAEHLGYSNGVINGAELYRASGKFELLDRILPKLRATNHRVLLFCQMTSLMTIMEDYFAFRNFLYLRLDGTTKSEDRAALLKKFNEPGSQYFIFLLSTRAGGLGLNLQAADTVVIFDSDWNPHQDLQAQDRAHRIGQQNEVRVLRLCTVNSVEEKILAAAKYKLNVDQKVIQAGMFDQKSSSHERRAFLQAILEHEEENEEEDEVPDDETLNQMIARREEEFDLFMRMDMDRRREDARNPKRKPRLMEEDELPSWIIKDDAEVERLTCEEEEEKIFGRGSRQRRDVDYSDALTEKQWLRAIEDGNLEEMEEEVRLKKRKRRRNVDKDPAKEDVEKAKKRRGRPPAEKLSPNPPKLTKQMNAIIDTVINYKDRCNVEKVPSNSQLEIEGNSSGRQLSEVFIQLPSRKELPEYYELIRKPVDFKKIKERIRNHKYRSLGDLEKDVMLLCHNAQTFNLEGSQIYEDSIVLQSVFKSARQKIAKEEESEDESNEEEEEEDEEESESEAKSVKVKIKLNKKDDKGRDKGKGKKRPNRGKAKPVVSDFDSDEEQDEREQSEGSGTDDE
- test details: PROTAC activity at VHL1/SMARCA2 in human genetically modified Hela cells assessed as maximal degradation measured after 24 hrs incubation by Nano-Glo HiBiT Lytic Detection Assay relative to control
- Format: cell-based
// units = %; emit number, no label

Take a look at these entries with their results.
Cc1ncsc1-c1ccc([C@H](C)NC(=O)[C@@H]2C[C@@H](O)CN2C(=O)[C@@H](NC(=O)CN2CCC(c3ccc4c(c3)C3(CCCCC3)c3nc(=O)c5c(Cl)cccc5n3-4)CC2)C(C)(C)C)cc1    97
Cc1ncsc1-c1ccc([C@H](CCCCCN2CCC(c3ccc4c(c3)C3(CCCCC3)c3nc(=O)c5c(Cl)cccc5n3-4)CC2)NC(=O)[C@@H]2C[C@@H](O)CN2C(=O)[C@@H](NC(=O)C2(F)CC2)C(C)(C)C)cc1    97
Cc1ncsc1-c1ccc([C@H](C)NC(=O)[C@@H]2C[C@@H](O)CN2C(=O)[C@@H](NC(=O)[C@H]2CC[C@H](CN3CCC(c4ccc5c(c4)C4(CCCCC4)c4nc(=O)c6c(Br)cccc6n4-5)CC3)CC2)C(C)(C)C)cc1    93
Cc1ncsc1-c1ccc([C@H](C)NC(=O)[C@@H]2C[C@@H](O)CN2C(=O)[C@@H](NC(=O)[C@H]2CC[C@H](CN3CC4(CCC(n5cc(-c6cc(-c7ccccc7O)nnc6N)cn5)CC4)C3)CC2)C(C)(C)C)cc1    93
Cc1ncsc1-c1ccc([C@H](CCCCCN2CCC(c3ccc4c(c3)C3(CCCCC3)c3nc(=O)c5c(Br)cccc5n3-4)CC2)NC(=O)[C@@H]2C[C@@H](O)CN2C(=O)[C@@H](NC(=O)C2(F)CC2)C(C)(C)C)cc1    97
Cc1ncsc1-c1ccc([C@H](C)NC(=O)[C@@H]2C[C@@H](O)CN2C(=O)[C@@H](NC(=O)CCCN2CCC(c3ccc4c(c3)C3(CCCCC3)c3nc(=O)c5c(Cl)cccc5n3-4)CC2)C(C)(C)C)cc1    87

Proceeding to the next molecule to report its Emax.
Return reported Emax; argument: Cc1ncsc1-c1ccc([C@H](C)NC(=O)[C@@H]2C[C@@H](O)CN2C(=O)[C@@H](NC(=O)[C@H]2CC[C@H](CN3CCC(c4ccc5c(c4)-n4c(nc(=O)c6c(Br)cccc64)C54CCCCC4)CC3)CC2)C(C)(C)C)cc1 88

====

- target of assay: SWI/SNF-related matrix-associated actin-dependent regulator of chromatin subfamily A member 4 (Homo sapiens)
- Sequence (P51532 whole entry): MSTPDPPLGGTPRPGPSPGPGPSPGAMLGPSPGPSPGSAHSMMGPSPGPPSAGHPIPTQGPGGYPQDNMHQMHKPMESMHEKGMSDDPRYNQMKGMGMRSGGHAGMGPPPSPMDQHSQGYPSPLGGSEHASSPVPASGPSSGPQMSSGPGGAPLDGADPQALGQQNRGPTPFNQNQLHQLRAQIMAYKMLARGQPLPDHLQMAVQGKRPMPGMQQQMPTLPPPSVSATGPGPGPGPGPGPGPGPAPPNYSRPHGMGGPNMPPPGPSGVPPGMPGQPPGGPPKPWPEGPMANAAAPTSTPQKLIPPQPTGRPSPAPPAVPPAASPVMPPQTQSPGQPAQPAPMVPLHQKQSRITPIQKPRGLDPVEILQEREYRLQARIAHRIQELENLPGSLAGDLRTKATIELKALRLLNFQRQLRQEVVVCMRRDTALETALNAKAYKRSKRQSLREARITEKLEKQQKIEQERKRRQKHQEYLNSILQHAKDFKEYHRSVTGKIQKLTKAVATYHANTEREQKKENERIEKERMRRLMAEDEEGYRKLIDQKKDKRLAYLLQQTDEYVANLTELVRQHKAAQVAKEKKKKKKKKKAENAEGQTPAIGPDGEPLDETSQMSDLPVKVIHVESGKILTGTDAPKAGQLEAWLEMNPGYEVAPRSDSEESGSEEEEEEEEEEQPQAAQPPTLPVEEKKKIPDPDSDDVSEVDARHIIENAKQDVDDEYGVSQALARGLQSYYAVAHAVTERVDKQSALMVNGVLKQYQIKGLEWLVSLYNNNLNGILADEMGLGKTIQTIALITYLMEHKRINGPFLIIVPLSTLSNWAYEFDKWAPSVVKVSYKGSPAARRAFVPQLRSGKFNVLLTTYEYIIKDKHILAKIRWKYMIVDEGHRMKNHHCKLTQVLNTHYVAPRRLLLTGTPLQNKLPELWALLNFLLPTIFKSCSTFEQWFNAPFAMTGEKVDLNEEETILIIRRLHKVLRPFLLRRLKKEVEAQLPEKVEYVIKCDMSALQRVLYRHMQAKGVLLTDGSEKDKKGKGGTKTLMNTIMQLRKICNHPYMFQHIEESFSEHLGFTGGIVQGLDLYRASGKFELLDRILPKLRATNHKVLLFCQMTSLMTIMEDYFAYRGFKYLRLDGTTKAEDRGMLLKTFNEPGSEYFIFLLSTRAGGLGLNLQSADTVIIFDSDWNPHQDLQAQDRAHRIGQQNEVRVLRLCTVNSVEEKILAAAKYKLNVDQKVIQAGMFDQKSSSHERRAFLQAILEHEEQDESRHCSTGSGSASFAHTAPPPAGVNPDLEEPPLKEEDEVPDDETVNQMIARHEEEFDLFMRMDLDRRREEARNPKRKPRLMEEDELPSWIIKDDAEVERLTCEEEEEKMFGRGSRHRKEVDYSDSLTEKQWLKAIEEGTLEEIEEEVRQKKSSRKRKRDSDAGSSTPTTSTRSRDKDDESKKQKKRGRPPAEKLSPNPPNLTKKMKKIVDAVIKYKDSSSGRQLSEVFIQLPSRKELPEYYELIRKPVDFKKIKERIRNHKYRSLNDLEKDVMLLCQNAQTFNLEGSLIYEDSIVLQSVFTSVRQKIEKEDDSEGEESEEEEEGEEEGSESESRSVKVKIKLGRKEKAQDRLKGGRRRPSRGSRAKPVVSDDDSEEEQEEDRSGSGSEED
- test details: Inhibition of recombinant human GST-tagged SMARCA4 bromodomain measured after 120 mins incubation by TR-FRET assay
pIC50: −log10 of the molar value.
I would appreciate it if you labelled entries satisfied when pIC50 is 7 or higher, otherwise not satisfied.

O=c1nc2n(c3ccnc(O)c13)-c1cc(C3CCNCC3)ccc1C21CCCCC1    not satisfied
O=c1nc2n(c3cccc(Br)c13)-c1ccc(C3CCNCC3)cc1C21CCCC1    satisfied
O=c1nc2n(c3cccc(Cl)c13)-c1ccc(C3CCNCC3)cc1C21CCNCC1    not satisfied
O=c1nc2n(c3cccc(Cl)c13)-c1ccc(C3CCNCC3)cc1C21CCOCC1    not satisfied

Exam item: decide whether the reported pIC50 for CCc1cccc2c1c(=O)nc1n2-c2cc(C3CCNCC3)ccc2C12CCCCC2 is at least 7. not satisfied

And what about the compound O=c1nc2n(c3cccc(Cl)c13)-c1ccc(C3CCNCC3)cc1C21CCCC1 ? satisfied

And what about the compound O=c1nc2n(c3cccc(Br)c13)-c1ccc(C3CCNCC3)cc1C21CCCCC1 ? satisfied
